Cited source: PubChem BioAssay (NCI)

Attribute: growth inhibition
experiment: NCI Yeast Anticancer Drug Screen. Data for the rad50 strain (AID 155);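 further: 0% = growth of vehicle-only cultures of the same strain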; details: S. cerevisiae rad50 strain growth inhibition; at 50.0 µM; active compounds read high
The panel holds about 79,000 compounds, 15% with a hit somewhere; the sample as a whole holds those more often.
Could you give me the number in %? Just the number is fine.

Before answering, review these 2 worked examples.
COc1ccc(N2C(=O)C3C=CC(n4[nH]c(=O)n(Cc5ccccc5)c4=O)CC3C2=O)cc1 (stereo not drawn) : 6.6
CCCCCCCCc1cc(CN2CCOCC2)c(O)c(CN2CCOCC2)c1 : 25.1

Query compound follows.
So what does the record say about growth inhibition for CN(C)CCCN1CC2C3CCCCC3=C3CCCCC3C2C1 (stereo not drawn) ?
-15.4
